biological target: T1, human Amyloid beta 1-42 peptide (Homo sapiens, UniProt P05067); assay: Surface Plasmon Resonance kinetic profiling of purified scFv (ProteOn); format: binding; settings: biotinylated human Amyloid beta 1-42 on streptavidin chip
T1 construct: biotinylated human Amyloid beta 1-42 peptide (rpeptide, USA; cat: A1117); purchased rPeptide, USA A1117; host or cells: synthetic peptide
T1 sequence (P05067 672-713): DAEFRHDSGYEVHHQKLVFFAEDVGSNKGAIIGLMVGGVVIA
parameter: ka (M⁻¹ s⁻¹)
One number for each entry, in M⁻¹ s⁻¹.

Record excerpt, results attached:
[
  {
    "molecule": "Abet0343: optimized anti-Aβ1-42 clone from VH1:VH2:VL3 recombination library (protein, left off: small tags and cut ends, optimized anti-Aβ1-42 clone from VH1:VH2:VL3 recombination library) scFv (part 1 of 2): EVQLLESGGGLVQPGGSLRLSCAASGFNFNHQVMWWVRQAPGKGLEWVSVIGKTNENIAYADSVKGRFTISRDNSKNTLYLQMNSLRAEDTAVYYCAREWMDHSRPYYYYGMDVWGQGTLVTVSS scFv (part 2 of 2): QSVLTQPPSVSVSPGQTASITCSGHNLEDKFASWYQQKSGQSPVLVIYRDDKRPSGIPERFSASNSGHTATLTISGTQATDEADYYCSSQDTVTRVFGGGTKLTVL",
    "units.symbol": "M⁻¹ s⁻¹",
    "ka": 120000
  },
  {
    "molecule": "Abet0368: optimized anti-Aβ1-42 clone derived from Abet0144-GL (protein, left off: small tags and cut ends, optimized anti-Aβ1-42 clone derived from Abet0144-GL) scFv (part 1 of 2): EVQLLESGGGLVQPGGSLRLSCAASGFDFGPSPMWWVRQAPGKGLEWVSVIGKDTQNSTYADSVKGRFTISRDNSKDTLYLQMNSLKAEDTAVYYCAREWMDHSRPYYYYGMDVWGQGTLVTVSS scFv (part 2 of 2): SYELTQPPSVSVSPGQTASITCSGHNLEDKFTSWYQQKSGQSPVLVIYRDDKRPSGIPERFSASNSGHTATLTISGAQATDEADYYCSSQDTVTRVFGGGTKLTVL",
    "units.symbol": "M⁻¹ s⁻¹",
    "ka": 187000
  },
  {
    "molecule": "Abet0342: optimized anti-Aβ1-42 clone derived from Abet0144-GL (protein, left off: small tags and cut ends, optimized anti-Aβ1-42 clone derived from Abet0144-GL) scFv (part 1 of 2): EVQLLESGGGLVQPGGSLRLSCAASGFDFRRSVMWWVRQAPGKGLEWVSVIGAQTQNKAYADSVKGRFTISRDNSKNTLYLQMNSLRAEDTAVYYCAREWMDHSRPYYYYGMDVWGQGTLVTVSS scFv (part 2 of 2): SYELTQPPSVSVSPGQTASITCSGHNLEDKFASWYQQKPGQSPVLVIYRDDKRPSGIPERFSASNSGDTATLTISGTQAMDEADYYCQAQDSTTRVFGGGTKLTVL",
    "units.symbol": "M⁻¹ s⁻¹",
    "ka": 136000
  }
]

Let us examine a further case.
Name the reported ka value associated with the molecule Abet0323b: optimized anti-Aβ1-42 clone derived from Abet0144-GL (protein, left off: small tags and cut ends, optimized anti-Aβ1-42 clone derived from Abet0144-GL) scFv (part 1 of 2): EVQLLESGGGLVQPGGSLRLSCAASTSTFQEDTMWWVRQAPGKGLEWVSVIGPNPKNNAYADSVKGRFTISRDNSKNTLYLQMNSLRAEDTAVYYCAREWMDHSRPYYYYGMDVWGQGTLVTVSS scFv (part 2 of 2): SYELTQPPSVSVSPGQTASITCSGHNLEDKFASWYQQKPGQSPVLVIYRDDKRPSGVPERFSASNSGHTATLTISGTQATDEADYYCSSQDTVTRVFGGGTKLIVL
210000
